These entries and their values trace back to patent US9067871B2.

TARGET OF ASSAY: human GlyT1c transporter (Homo sapiens (Human))
Sequence (P48067 whole entry): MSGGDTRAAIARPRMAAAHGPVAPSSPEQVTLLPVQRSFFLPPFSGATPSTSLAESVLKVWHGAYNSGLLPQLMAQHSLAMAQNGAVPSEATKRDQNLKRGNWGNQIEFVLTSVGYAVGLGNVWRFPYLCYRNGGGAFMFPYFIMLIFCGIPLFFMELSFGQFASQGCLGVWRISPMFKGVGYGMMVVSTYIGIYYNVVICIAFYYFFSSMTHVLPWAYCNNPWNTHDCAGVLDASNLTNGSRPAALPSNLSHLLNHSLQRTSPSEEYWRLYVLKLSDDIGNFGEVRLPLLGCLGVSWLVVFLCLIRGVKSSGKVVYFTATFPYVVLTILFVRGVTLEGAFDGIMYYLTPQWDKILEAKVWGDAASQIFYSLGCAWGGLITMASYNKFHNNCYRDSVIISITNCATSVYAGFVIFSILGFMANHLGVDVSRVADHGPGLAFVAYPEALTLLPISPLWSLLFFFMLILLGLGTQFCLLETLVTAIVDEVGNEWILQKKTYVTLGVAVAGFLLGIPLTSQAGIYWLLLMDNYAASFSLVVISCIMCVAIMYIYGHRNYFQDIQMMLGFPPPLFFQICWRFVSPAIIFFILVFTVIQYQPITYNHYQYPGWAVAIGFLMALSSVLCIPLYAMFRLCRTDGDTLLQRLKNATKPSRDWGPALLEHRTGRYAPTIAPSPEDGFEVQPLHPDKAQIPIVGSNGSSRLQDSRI
MEASUREMENT PROTOCOL: Radioligand binding assay using recombinant CHO cell membranes expressing human GlyT1
TEST CONTEXT: human GlyT1c-expressing CHO cell membranes; read-out: radioligand binding Kiapp
From the text: 2. Radioligand binding assays using recombinant CHO cell membranes expressing human GlyT1: […]
Structures can show the parent of a compound that is named as a salt.
ENDPOINT LABEL: Ki

Known Ki results, listed for orientation:
COMPOUND	TARGET OF ASSAY	Ki
CN(CCOc1ccc2c(c1)C(Cc1ccccc1)C(N)CC2)S(=O)(=O)c1cnn(C)c1 (stereo not drawn)	human GlyT1c transporter (Homo sapiens (Human))	≤ 100 nM
CN(C)S(=O)(=O)NCCOc1ccc2c(c1)C(Cc1ccc(Cl)c(Cl)c1)C(N)CC2 (stereo not drawn) [Example 25, hydrochloride]	human GlyT1c transporter (Homo sapiens (Human))	≤ 100 nM
CCOC(=O)NC1CCc2ccc(OCCNS(=O)(=O)c3cccnc3)cc2C1Cc1ccc(Cl)c(Cl)c1 (stereo not drawn)	human GlyT1c transporter (Homo sapiens (Human))	≤ 10000 nM
CCCS(=O)(=O)NCCCc1ccc2c(c1)C(Cc1ccc(F)cc1)C(NC(C)=O)CC2 (stereo not drawn)	human GlyT1c transporter (Homo sapiens (Human))	≤ 10000 nM
O=S(=O)(CC1CC1)NCCOc1ccc2c(c1)C(Cc1ccccc1)C(N1CCC(F)C1)CC2 (stereo not drawn) [Example 136, hydrochloride]	human GlyT1c transporter (Homo sapiens (Human))	≤ 100 nM

Input line: Give human GlyT1c transporter (Homo sapiens (Human)) Ki for the following compound: CCOC(=O)NC1CCc2ccc(OCCNC(=O)OC(C)(C)C)cc2C1Cc1ccc(Cl)c(Cl)c1 (stereo not drawn)
Output line: ≤ 10000 nM

Input line: Give Ki; test system human GlyT1c transporter (Homo sapiens (Human)); compound CCCS(=O)(=O)N(C)CCCc1ccc2c(c1)C(Cc1cccc(F)c1)C(N)CC2 (stereo not drawn) [Example 227, hydrochloride]
Output line: ≤ 100 nM

Input line: # lookup: human GlyT1c transporter (Homo sapiens (Human)) Ki, key = NC1CCc2ccc(OCCNS(=O)(=O)C3CCCCC3)cc2C1Cc1ccc(Cl)c(Cl)c1 (stereo not drawn) [Example 85, hydrochloride]
Output line: ≤ 1000 nM
